molecular target: T1, HLA-A*02:01 (human); test: UV peptide-exchange ELISA
T1 construct: MHC class I monomer of the UV-ligand exchange assay; also called peptide-receptive MHC molecules; MHC class I
The following binders are listed with their measured peptide exchange yield values.

binder: QLLDTYFTL
peptide exchange yield: 50 to 75%

binder: SLQEEKLIYV
peptide exchange yield: 50 to 75%

binder: GLSIFAQDLRL
peptide exchange yield: 20 to 50%

binder: ILYNLYDLL
peptide exchange yield: 50 to 75%
